target-or-system: UniProtKB P51589
Sequence (P51589 whole entry): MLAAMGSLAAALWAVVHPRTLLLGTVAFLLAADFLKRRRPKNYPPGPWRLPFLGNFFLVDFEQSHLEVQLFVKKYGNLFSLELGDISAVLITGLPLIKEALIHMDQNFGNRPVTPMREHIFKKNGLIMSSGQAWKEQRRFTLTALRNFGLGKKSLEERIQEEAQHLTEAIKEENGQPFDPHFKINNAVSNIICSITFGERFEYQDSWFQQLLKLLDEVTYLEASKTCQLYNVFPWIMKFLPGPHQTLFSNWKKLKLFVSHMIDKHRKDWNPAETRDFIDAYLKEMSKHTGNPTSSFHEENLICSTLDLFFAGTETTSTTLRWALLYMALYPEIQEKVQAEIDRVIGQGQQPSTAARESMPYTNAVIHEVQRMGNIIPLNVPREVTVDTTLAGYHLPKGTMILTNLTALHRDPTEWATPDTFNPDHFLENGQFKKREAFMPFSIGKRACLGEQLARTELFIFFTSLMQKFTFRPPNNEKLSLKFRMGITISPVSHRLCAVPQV
test-details: Michaelis-Menten kinetics of TKI metabolite production, cDNA expressed CYP2J2 microsomes
cond: read-out: Affinity Constant, Km, Km of the parent TKI for production of the labelled metabolite, 10 pmoles CYP, TKI 0.5-20 µM, 15 min
reported-property: Km

{"compound": "Cc1nc(Nc2ncc(C(=O)Nc3c(C)cccc3Cl)s2)cc(N2CCNCC2)n1 [dehydroxyethyl-dasatinib]", "recorded-result": "3.9 µM"}

----------
Quick list: Km per entry.
target-or-system: CYP1B1 (Homo sapiens)
Sequence (Q16678 1-543): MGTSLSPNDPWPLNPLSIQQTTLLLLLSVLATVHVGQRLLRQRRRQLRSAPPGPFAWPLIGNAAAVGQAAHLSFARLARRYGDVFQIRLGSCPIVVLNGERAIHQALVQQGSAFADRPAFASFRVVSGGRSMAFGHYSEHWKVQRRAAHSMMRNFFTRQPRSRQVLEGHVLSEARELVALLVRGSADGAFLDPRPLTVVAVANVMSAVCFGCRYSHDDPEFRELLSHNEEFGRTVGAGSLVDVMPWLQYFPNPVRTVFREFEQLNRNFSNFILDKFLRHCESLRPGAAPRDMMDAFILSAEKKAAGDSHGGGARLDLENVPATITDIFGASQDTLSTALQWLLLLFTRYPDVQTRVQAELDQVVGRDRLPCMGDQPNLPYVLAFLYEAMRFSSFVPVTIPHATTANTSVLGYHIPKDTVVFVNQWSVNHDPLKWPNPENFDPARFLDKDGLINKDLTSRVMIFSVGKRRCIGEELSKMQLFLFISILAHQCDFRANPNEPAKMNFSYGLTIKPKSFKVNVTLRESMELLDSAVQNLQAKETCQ
test-details: Michaelis-Menten kinetics of TKI metabolite production, cDNA expressed CYP1B1 microsomes
cond: read-out: Affinity Constant, Km, Km of the parent TKI for production of the labelled metabolite, 10 pmoles CYP, TKI 0.5-20 µM, 15 min
reported-property: Km (µM)

{"molecule": "Cc1nc(Nc2ncc(C(=O)Nc3c(C)cccc3Cl)s2)cc(N2CCNCC2)n1 [dehydroxyethyl-dasatinib]", "recorded-result": 2.2}
{"molecule": "CCNCCNC(=O)c1c(C)[nH]c(/C=C2\\C(=O)Nc3ccc(F)cc32)c1C", "recorded-result": 2.7}

Source: paper PMC4018390
